Reference source for all entries: patent US20240209076A1

Target: T1, recombinant human IL-6 (human, UniProt P05231 30-212)
T1 construct: Flowed in solution over the captured antibodies
T1 sequence (P05231 30-212 limits assumed): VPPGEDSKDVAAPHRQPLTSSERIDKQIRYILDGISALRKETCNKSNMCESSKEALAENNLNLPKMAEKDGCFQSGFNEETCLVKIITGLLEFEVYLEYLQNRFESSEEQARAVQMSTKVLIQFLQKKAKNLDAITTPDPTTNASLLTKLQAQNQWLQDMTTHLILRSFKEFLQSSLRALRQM
Experiment: SPR (Biacore), supernatant IgG on Protein A, 25 C
quantity-measured: koff (s⁻¹)
Write down the numeric answer in s⁻¹ and omit the unit.

INSERT INTO assay_data (binder, quantity_measured, observed) VALUES
  ('anti-IL-6 antibody, heavy chain M34W, light chain WT (antibody, IgG1, V domains shown, Full IgG1 tested; VL as in m2) VH: EVQLVESGGGLVQPGGSLRLSCAASGFTFSPFAWSWVRQAPGKGLEWVAKISPGGSWTYYSDTVTGRFTFSLDTSKSTAYLQMNSLRAEDTAVYYCARQLWGYYALDIWGQGTLVTVSS VL: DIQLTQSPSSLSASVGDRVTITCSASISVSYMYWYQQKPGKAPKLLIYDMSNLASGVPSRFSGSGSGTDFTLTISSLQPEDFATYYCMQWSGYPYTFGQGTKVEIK', 'koff', 0.000115),
  ('anti-IL-6 antibody, heavy chain F27P, light chain WT (antibody, IgG1, V domains shown, Full IgG1 tested; V domains derived as in m2) VH: EVQLVESGGGLVQPGGSLRLSCAASGPTFSPFAMSWVRQAPGKGLEWVAKISPGGSWTYYSDTVTGRFTFSLDTSKSTAYLQMNSLRAEDTAVYYCARQLWGYYALDIWGQGTLVTVSS VL: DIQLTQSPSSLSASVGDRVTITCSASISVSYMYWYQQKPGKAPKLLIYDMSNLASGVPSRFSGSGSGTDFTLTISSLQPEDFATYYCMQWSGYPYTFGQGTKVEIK', 'koff', 0.000196),
  ('anti-IL-6 antibody, heavy chain F29Y, light chain WT (antibody, IgG1, V domains shown, Full IgG1 tested; V domains derived as in m2) VH: EVQLVESGGGLVQPGGSLRLSCAASGFTYSPFAMSWVRQAPGKGLEWVAKISPGGSWTYYSDTVTGRFTFSLDTSKSTAYLQMNSLRAEDTAVYYCARQLWGYYALDIWGQGTLVTVSS VL: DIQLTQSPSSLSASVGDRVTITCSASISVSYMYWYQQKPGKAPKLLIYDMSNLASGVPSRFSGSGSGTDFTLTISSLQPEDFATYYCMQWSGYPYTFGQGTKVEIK', 'koff', 0.000133),
  ('anti-IL-6 antibody, heavy chain D62Q, light chain WT (antibody, IgG1, V domains shown, Full IgG1 tested; V domains derived as in m2) VH: EVQLVESGGGLVQPGGSLRLSCAASGFTFSPFAMSWVRQAPGKGLEWVAKISPGGSWTYYSQTVTGRFTFSLDTSKSTAYLQMNSLRAEDTAVYYCARQLWGYYALDIWGQGTLVTVSS VL: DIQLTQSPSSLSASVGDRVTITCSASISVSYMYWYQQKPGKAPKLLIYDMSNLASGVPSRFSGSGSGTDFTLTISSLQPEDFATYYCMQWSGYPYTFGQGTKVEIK', 'koff', 0.000148);

Now for a further binder.
Q: Give the measured koff of anti-IL-6 antibody, heavy chain WT, light chain S26K (antibody, IgG1, V domains shown, Full IgG1 tested; V domains derived as in m2) VH: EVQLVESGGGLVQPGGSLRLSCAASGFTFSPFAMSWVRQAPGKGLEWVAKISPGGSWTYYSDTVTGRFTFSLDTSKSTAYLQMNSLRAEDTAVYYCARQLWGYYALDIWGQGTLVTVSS VL: DIQLTQSPSSLSASVGDRVTITCSAKISVSYMYWYQQKPGKAPKLLIYDMSNLASGVPSRFSGSGSGTDFTLTISSLQPEDFATYYCMQWSGYPYTFGQGTKVEIK .
Result: 0.000164
